Target: Calcium-activated potassium channel slo-1 (Caenorhabditis elegans)
Sequence (Q95V25 whole entry): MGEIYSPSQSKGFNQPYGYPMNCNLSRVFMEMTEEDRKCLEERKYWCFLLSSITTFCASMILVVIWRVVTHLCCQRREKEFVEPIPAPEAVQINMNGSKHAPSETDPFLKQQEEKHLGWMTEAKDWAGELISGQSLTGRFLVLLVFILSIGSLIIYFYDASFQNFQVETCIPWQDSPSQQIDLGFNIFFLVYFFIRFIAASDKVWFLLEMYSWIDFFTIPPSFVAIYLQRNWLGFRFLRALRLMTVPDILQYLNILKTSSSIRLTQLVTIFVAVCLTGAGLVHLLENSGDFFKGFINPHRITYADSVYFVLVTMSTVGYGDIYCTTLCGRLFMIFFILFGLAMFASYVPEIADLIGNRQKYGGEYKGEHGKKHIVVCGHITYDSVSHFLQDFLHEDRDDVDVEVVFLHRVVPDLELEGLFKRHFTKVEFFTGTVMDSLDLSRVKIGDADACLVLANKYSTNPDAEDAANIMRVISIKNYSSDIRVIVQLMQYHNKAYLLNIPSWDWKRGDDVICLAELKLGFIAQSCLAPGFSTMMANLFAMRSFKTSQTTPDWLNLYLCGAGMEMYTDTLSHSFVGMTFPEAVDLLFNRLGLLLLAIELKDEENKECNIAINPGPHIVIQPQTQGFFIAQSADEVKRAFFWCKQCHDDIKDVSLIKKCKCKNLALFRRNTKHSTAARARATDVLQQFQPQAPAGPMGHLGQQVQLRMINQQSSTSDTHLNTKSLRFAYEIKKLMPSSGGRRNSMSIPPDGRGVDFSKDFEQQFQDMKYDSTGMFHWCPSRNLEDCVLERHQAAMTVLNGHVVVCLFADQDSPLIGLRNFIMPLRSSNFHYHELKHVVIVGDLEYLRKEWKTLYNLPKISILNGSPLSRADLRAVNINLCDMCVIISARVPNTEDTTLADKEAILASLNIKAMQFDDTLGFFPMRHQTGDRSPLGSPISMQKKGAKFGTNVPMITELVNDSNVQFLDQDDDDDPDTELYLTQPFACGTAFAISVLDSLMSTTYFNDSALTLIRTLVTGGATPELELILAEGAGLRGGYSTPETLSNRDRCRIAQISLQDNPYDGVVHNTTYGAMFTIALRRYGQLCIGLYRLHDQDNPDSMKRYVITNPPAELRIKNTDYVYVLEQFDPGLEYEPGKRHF
Assay: Inhibition of wild type L4 larval stage of Caenorhabditis elegans N2 bristol BK channel assessed as induction of reversal locomotion at 1 uM after 42 hrs
Recorded Endpoint: inhibition (INH)

Line Notation	Target Under Test	Recorded Endpoint	Result
C=C(C)[C@H]1O[C@H]2CC[C@@]3(C)[C@@](O)(CC[C@H]4[C@@H]5OC(C)(C)[C@@H]6C[C@@H]7C(=C)Cc8c(Br)cc9[nH]c(c5c9c8[C@@]76O)[C@@]43C)[C@]23O[C@@H]3[C@H]1O	Calcium-activated potassium channel slo-1 (Caenorhabditis elegans)	inhibition (INH)	Not Active
C=C(C)[C@H]1O[C@H]2CC[C@@]3(C)[C@@](O)(CC[C@H]4[C@@H]5OC(C)(C)[C@@H]6C[C@@H]7C(=C)Cc8c(Cl)cc9[nH]c(c5c9c8[C@@]76O)[C@@]43C)[C@]23O[C@@H]3[C@H]1OC(=O)c1ccccc1	Calcium-activated potassium channel slo-1 (Caenorhabditis elegans)	inhibition (INH)	Not Active
CC(C)(O)[C@@H]1CC[C@]2(C)[C@H](CC[C@@]3(C)[C@H]2CC[C@H]2Cc4c([nH]c5ccccc45)[C@@]23C)O1	Calcium-activated potassium channel slo-1 (Caenorhabditis elegans)	inhibition (INH)	Not Active
